# Tested on: 454973-116-R2-J3-PDC complex spheroid viability;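 note: spheroids exposed to drugs for seven days before measurement; percent viability relative to DMSO vehicle control wells taken as 100%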
# protocolDescription: Anticancer human tumor 454973-116-R2-J3-PDC patient-derived pancreatic carcinoma cell line growth inhibition [POLQ]
# conditions: second compound 0.316 µM; first compound 0.000316 µM; active compounds read low
Hi there, I'd appreciate the recorded viability, T/C for every entry that follows.
Numbers only, in %.

Please review the following examples before continuing.
>>> measuredresult("Cn1ncnc1[C@H]1c2n[nH]c(=O)c3cc(F)cc(c23)N[C@@H]1c1ccc(F)cc1 + Nc1ccc(C#CCN(C(=O)Cc2ncc(C(F)(F)F)cc2C(F)(F)F)c2ccc(F)cc2)nn1")
105
>>> measuredresult("CC[C@@]1(O)C(=O)OCc2c1cc1n(c2=O)Cc2cc3c(CN(C)C)c(O)ccc3nc2-1 + COC1C(OC(N)=O)C(O)C(Oc2ccc3c(O)c(NC(=O)c4ccc(O)c(CC=C(C)C)c4)c(=O)oc3c2C)OC1(C)C")
109
>>> measuredresult("Cn1ncnc1[C@H]1c2n[nH]c(=O)c3cc(F)cc(c23)N[C@@H]1c1ccc(F)cc1 + COC1C(OC(N)=O)C(O)C(Oc2ccc3c(O)c(NC(=O)c4ccc(O)c(CC=C(C)C)c4)c(=O)oc3c2C)OC1(C)C")
112
>>> measuredresult("Cn1ncnc1[C@H]1c2n[nH]c(=O)c3cc(F)cc(c23)N[C@@H]1c1ccc(F)cc1 + Cc1cccc(N(C)C(=O)C2C(O)CCN2c2nc(C)cc(C(F)(F)F)c2C#N)c1")
102

// input: 2 compounds below; output: viability, T/C for each
1. CC[C@@]1(O)C(=O)OCc2c1cc1n(c2=O)Cc2cc3c(CN(C)C)c(O)ccc3nc2-1 + Cc1cccc(N(C)C(=O)C2C(O)CCN2c2nc(C)cc(C(F)(F)F)c2C#N)c1
2. CC[C@@]1(O)C(=O)OCc2c1cc1n(c2=O)Cc2cc3c(CN(C)C)c(O)ccc3nc2-1 + Nc1ccc(C#CCN(C(=O)Cc2ncc(C(F)(F)F)cc2C(F)(F)F)c2ccc(F)cc2)nn1

[98.3, 106]
